Data origin, for the record: PubChem BioAssay AID1220

- Subject Of Test: Mannose-6-phosphate isomerase (Homo sapiens)
- Test: MPI inhibition at elevated mannose 6-phosphate – biochemical, fluorescence intensity, high mannose 6-phosphate, primary screen (AID 1220)
- Conditions: recombinant PMI enzyme, coupled fluorescence intensity; at 20 µM; active compounds read high
Among all 190,000 compounds or so, about 1,300 (0.68%) were called active. The full list was thinned out, with actives kept by preference.
Threshold rule: inhibition greater than or equal to 50% is yes; below that, no.

(Q) Textbook exercise: given the entry COc1ccc(C2C3C(=O)N(Cc4ccccc4)C(=O)C3ON2c2ccccc2)c(OC)c1OC (stereo not given) , state whether its inhibition is greater than or equal to 50%.
(A) no

(Q) Given Fc1ccc(NCc2cccnc2)cc1 , state whether its inhibition is at least 50%.
(A) no

(Q) Could you verify whether the entry Cc1ccccc1NCc1ccccc1O shows inhibition of no less than 50%?
(A) no

(Q) Could you tell me if the measured inhibition of Cc1cccc(NCc2ccccc2O)c1C reaches 50% or more?
(A) no

(Q) Given the entry O=C(COC(=O)[C@H](Cc1ccccc1)NC(=O)c1ccco1)NC(c1ccccc1)c1ccccc1 , answer whether its inhibition meets or surpasses 50%.
(A) no

(Q) Is reported inhibition greater than or equal to 50% here: O=C(NCc1ccccc1)C1=C[C@H](c2csc3ccccc23)C[C@H](OCCCCO)O1
(A) yes

(Q) Check if inhibition >= 50% (inclusive). Item: Oc1ccc2ccccc2c1/C=N/c1nc2c(s1)CCCC2
(A) no

(Q) Is reported inhibition greater than or equal to 50% here: Oc1ccccc1CNc1cccc2cccnc12
(A) no

(Q) Item O=C(C1=C[C@H](c2csc3ccccc23)C[C@H](OCCCCO)O1)N1CCN(Cc2ccccc2)CC1 with inhibition of 50% or above?
(A) no

(Q) Check this compound for inhibition at or above 50%: Oc1ccc2ccccc2c1/C=N/c1nccs1
(A) yes

(Q) Could you tell me if the measured inhibition of CN(Cc1nccn1C)C(=O)CC1C(=O)NCCN1CC(c1ccccc1)c1ccccc1 (stereo not given) reaches 50% or more?
(A) no

(Q) Check if inhibition >= 50% (inclusive). Item: Cc1noc(C)c1S(=O)(=O)N1CCCC(C(=O)Nc2ccc(Cl)cn2)C1 (stereo not given)
(A) no

(Q) Answer whether inhibition of O=C(O)Cc1ccc(N=Cc2c(O)ccc3ccccc23)cc1 is greater than or equal to 50%.
(A) yes

(Q) Hello, I need to know if O=C(NCc1ccccc1)C1=C[C@@H](c2csc3ccccc23)C[C@@H](OCCCCO)O1 has measured inhibition not below 50%. Thanks!
(A) yes

(Q) Check if inhibition >= 50% (inclusive). Item: Oc1ccc2ccccc2c1C=Nc1ccccc1-c1nc2ccccc2[nH]1
(A) no
